Taken from the supplement of paper PMC11451515.

// reported cell viability for each item listed
Tested on: NOMO1
PROCEDURE DETAILS: cell viability relative to DMSO control; higher = less cytotoxic
REPORTED CONDITIONS: RPMI 5 mM glucose + 10% FBS; 48 h; 46.1 µM

- RECORD SMILES: "CCN(CC)CCCCNc1nc2cc(Cl)c(Cl)cc2nc1-c1ccc(-c2cccs2)s1"
  VALUE UNITS: "%"
  cell viability: 5.9
- RECORD SMILES: "CC(C)Oc1cc(Nc2nc(N[C@@H](C)c3ccc(F)cn3)ncc2Cl)n[nH]1"
  VALUE UNITS: "%"
  cell viability: 72.6
- RECORD SMILES: "CCc1c(C(=O)C(N)=O)c2c(OCC(=O)O)cccc2n1Cc1ccccc1"
  VALUE UNITS: "%"
  cell viability: 92.3
- RECORD SMILES: "CC1=C(C=CC=C1)N2\\C(=N/C3=C(C(=CC=C3)C)C2=O)C[N]4N=CC5=C4N=CN=C5N"
  VALUE UNITS: "%"
  cell viability: 22.7
- RECORD SMILES: "O=C1C[C@@H](c2ccc(O)cc2)Oc2cc(O)cc(O)c21"
  VALUE UNITS: "%"
  cell viability: 111
- RECORD SMILES: "OCc1ccc(-c2nn(Cc3ccccc3)c3ccccc23)o1"
  VALUE UNITS: "%"
  cell viability: 8.67
- RECORD SMILES: "CN1CCC(CC1)COC2=CN=C(N=C2)C3=CC(=CC=C3)CN4/N=C(\\C=C/C4=O)C5=CC(=CC=C5)C#N"
  VALUE UNITS: "%"
  cell viability: 114
- RECORD SMILES: "COc1cc2c(Nc3ccc(Cl)c(Cl)c3F)ncnc2cc1OC[C@@H]1C[C@@H]2CN(C)C[C@@H]2C1"
  VALUE UNITS: "%"
  cell viability: 22.5
- RECORD SMILES: "CC\\1=C(C(=O)N(\\C=C1)C2=CC=C(C=C2)C3=NC=CO3)/C4=CC5=CN=C(N)N=C5C=C4"
  VALUE UNITS: "%"
  cell viability: 100
- RECORD SMILES: "NC1=NC=C(C=C1)C2=CC=C3N=CC\\4=C(N(C(=O)\\C=C4)C5=CC(=CC=C5)C(F)(F)F)C3=C2"
  VALUE UNITS: "%"
  cell viability: 13.2
